B1: Glucocorticoid receptor, residues 419 to 494; numbered along this chain, P04150 (parent)
chain: KLCLVCSDEASGCHYGVLTCGSCKVFFKRAVEGQHNYLCAGRNDCIIDKIRRKNCPACRYRKCLQAGMNLEARKTK

# Variants of: B1
# EXPERIMENT: abundance fitness (aPCA) (normalised: wild type 0, dead -1); higher = more abundant; growth selection in yeast, the domain comes from the species named
# ASSAY CONTEXT: Homo sapiens
Classification field: enter 1.0 for abundance fitness values not below -0.3, 0.0 for values below it.

Consider the worked cases shown below.
// query Record S7D ; criterion: abundance fitness no lower than -0.3. Met?
// result 1.0

// query Record M68R ; criterion: abundance fitness no lower than -0.3. Met?
// result 0.0

// query Record C20G ; criterion: abundance fitness no lower than -0.3. Met?
// result 0.0

// query Record S7Y ; criterion: abundance fitness no lower than -0.3. Met?
// result 1.0

// query Record V31Y ; criterion: abundance fitness no lower than -0.3. Met?
// result 1.0

// query Record E32W ; criterion: abundance fitness no lower than -0.3. Met?
// result 1.0

// query Record G67R ; criterion: abundance fitness no lower than -0.3. Met?
// result 0.0

// query Record G16N ; criterion: abundance fitness no lower than -0.3. Met?
// result 1.0

Next:
// query Record L70V ; criterion: abundance fitness no lower than -0.3. Met?
// result 1.0

// query Record I47C ; criterion: abundance fitness no lower than -0.3. Met?
// result 0.0
